B1: glmS ribozyme (parent)
chain: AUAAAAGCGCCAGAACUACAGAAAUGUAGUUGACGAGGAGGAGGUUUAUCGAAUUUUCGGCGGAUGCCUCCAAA

variants of: B1; assay: self-cleavage kobs at 640 uM GlcN6P; higher = faster cleavage; RNA array; conditions: with glucosamine-6-phosphate
This sample holds only a part of the variants without activity.
Observation type: self-cleavage kobs at 640 uM GlcN6P

> print(dat)
               mutation.code        result
 1                 U55A C68A  8.04e-05 s⁻¹
 2                 C34U U47C   < 1e-05 s⁻¹
 3  C10U U47C U56G C68U U69A   < 1e-05 s⁻¹
 4            G51U A52G G59A   < 1e-05 s⁻¹
 5                 U31A C50G  0.000349 s⁻¹
 6                 C34G U65C   < 1e-05 s⁻¹
 7                 G13U A14U  0.000174 s⁻¹
 8              G7U C8G G38C   < 1e-05 s⁻¹
 9                 G44A U45G  0.000889 s⁻¹
10            A33U G37C U46C   < 1e-05 s⁻¹
11  A12G G29C A39G A52C C67A   < 1e-05 s⁻¹
12            G51A G62C G63C   < 1e-05 s⁻¹
13            G13U U30G A48C   < 1e-05 s⁻¹
14            G62U G63U G66C   < 1e-05 s⁻¹
15             G7U U46A C68U   < 1e-05 s⁻¹
16                 G44U G51C   < 1e-05 s⁻¹
17                  A6C G63A   < 1e-05 s⁻¹
18            A33C G35A G41A   < 1e-05 s⁻¹
19                 U47A G66A   0.00249 s⁻¹
20       A14G G35A U45G G66U   < 1e-05 s⁻¹
21             C8U G13C A14C   < 1e-05 s⁻¹
22                 A52C G59A   < 1e-05 s⁻¹
23                  G7C C50U   < 1e-05 s⁻¹
24   G9A G32A G43C U56C C68U   < 1e-05 s⁻¹
25                  A6U C70U  8.14e-05 s⁻¹
26            A39G U46C C71U   0.00179 s⁻¹
27   G7C A15C A39U A42C U57A   < 1e-05 s⁻¹
28                  G9C C16G   < 1e-05 s⁻¹
29                 G29A U30G   0.00125 s⁻¹
30                 A14G G35C   < 1e-05 s⁻¹
31            C11G G35A C58G   < 1e-05 s⁻¹
32                 C34U G51U   < 1e-05 s⁻¹
33                 C68G C70U  3.32e-05 s⁻¹
34                 A64U C67G   < 1e-05 s⁻¹
35         A6C C8U G38C G51C   < 1e-05 s⁻¹
36                 U45A C71U     0.012 s⁻¹
37            A14U C16A G29A   8.7e-05 s⁻¹
38       A39U U45G A52G C70A   < 1e-05 s⁻¹
39                 G32U U55A  0.000132 s⁻¹
40                 G38A U57G   < 1e-05 s⁻¹
41                 G38U G59C   < 1e-05 s⁻¹
